# System: Saccharomyces cerevisiae;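 note: PSI is a weighted mean of sequencing reads over stability bins, variants kept only with over 10 reads, mCherry proximal and sfGFP distal, peptide attached via GGGS linker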
# experimentalDetails: protein stability index of tFT-peptide fusion (C-terminal peptide) (PSI (0-1 scale)); higher = more stable (slower turnover)
# assayConditions: genetic background: cdc34-1; temperature: 37 C

sequenceEntry: IVRLGRWLGLSC
protein stability index: 0.657
--
sequenceEntry: RYQDLSDWRRIS
protein stability index: 0.412
--
sequenceEntry: NLTAIIYTLVVD
protein stability index: 0.231
--
sequenceEntry: WISVRIFISCFF
protein stability index: 0.177
--
sequenceEntry: EDRKRNKERRWT
protein stability index: 0.679
--
sequenceEntry: FLFLLLFLLLCC
protein stability index: 0.467
--
sequenceEntry: WFLFVLCAWGFF
protein stability index: 0.295
--
sequenceEntry: FFCRWGSTVTLL
protein stability index: 0.604
--
sequenceEntry: FFLDRLVIRLIA
protein stability index: 0.149
